System: Calu-1
Test: Growth inhibition of human Calu1 cells at 10 uM after 24 hrs by propidium iodide assay
Assay type: functional
Conditions: Calu-1, 24 h, read-out: GI
Short version: inhibition of growth at 10 µM at least 30% is met, less is not met.

INSERT INTO results (substance_smiles, assigned_category) VALUES
  ('COc1ccc(C(=O)/C=C/c2ccc(OC)cc2OC)cc1', 'met'),
  ('COc1cc(/C=C/C(=O)c2ccc(Cl)cc2)cc(OC)c1OC', 'met'),
  ('COc1ccc(/C=C/C(=O)c2ccccc2)c(OC)c1', 'met'),
  ('COc1ccc(/C=C/C(=O)c2ccc(OC)cc2OC)c(OC)c1', 'met'),
  ('COc1cc(/C=C/C(=O)c2ccccc2)cc(OC)c1OC', 'not met');

Hi team, for COc1ccc(/C=C/C(=O)c2ccc(Cl)cc2)c(OC)c1 , is the recorded inhibition of growth at 10 µM at or above 30%? not met

====

Tested on: ACHN
Assay: Growth inhibition of human ACHN cells at 10 uM after 48 hrs by propidium iodide assay
Settings: read-out: GI
Short version: inhibition of growth at 10 µM at least 50% is TRUE, less is FALSE.

Check out these entries, answers already filled in.
INSERT INTO results (substance_smiles, assigned_category) VALUES
  ('COc1ccc(C(=O)/C=C/c2ccc(OC)cc2OC)cc1', 'FALSE'),
  ('COc1ccc(/C=C/C(=O)c2ccc(Cl)cc2Cl)c(OC)c1', 'FALSE'),
  ('COc1cc(/C=C/C(=O)c2ccc(Cl)cc2)cc(OC)c1OC', 'TRUE'),
  ('COc1ccc(/C=C/C(=O)c2ccccc2)c(OC)c1', 'TRUE'),
  ('COc1ccc(/C=C/C(=O)c2ccc(Cl)cc2)c(OC)c1', 'FALSE'),
  ('COc1cc(/C=C/C(=O)c2ccccc2)cc(OC)c1OC', 'FALSE');

Hi team, for COc1ccc(/C=C/C(=O)c2ccc(OC)cc2OC)c(OC)c1 , is the recorded inhibition of growth at 10 µM at or above 50%? FALSE

====

Tested on: THP-1
Assay: Antiinflammatory activity in human THP1 cells assessed as inhibition of LPS-induced IL6 release at 10 uM preincubated for 30 mins before LPS challenge by ELISA
Type: functional
measured-metric: inhibition at 10 µM (%)
Give a bare numeral; the unit % is implied.

INSERT INTO results (substance_smiles, measured_metric, unit_spec, reported) VALUES
  ('COc1ccc(/C=C/C(=O)c2ccc(OC)cc2OC)c(OC)c1', 'inhibition at 10 µM', '%', 81),
  ('COc1ccc(C(=O)/C=C/c2ccc(OC)cc2OC)cc1', 'inhibition at 10 µM', '%', 39),
  ('COc1ccc(/C=C/C(=O)c2ccc(Cl)cc2)c(OC)c1', 'inhibition at 10 µM', '%', 12),
  ('COc1ccc(/C=C/C(=O)c2ccc(Cl)cc2Cl)c(OC)c1', 'inhibition at 10 µM', '%', 6);

// lookup inhibition at 10 µM for COc1cc(/C=C/C(=O)c2ccccc2)cc(OC)c1OC 100

// lookup inhibition at 10 µM for COc1cc(/C=C/C(=O)c2ccc(Cl)cc2)cc(OC)c1OC 100

// lookup inhibition at 10 µM for COc1ccc(/C=C/C(=O)c2ccccc2)c(OC)c1 100
